# key: entry, value: pKd
biological target: His-tagged bHLH-LZ domain of human Myc protein (aa353-439) (Homo sapiens); construct: human Myc protein (aa353-439, Cayman Chemicals, Ann Arbor, MI); purchased Cayman Chemicals; assay: Surface Plasmon Resonance binding to immobilized Myc; conditions: average KD, equilibrium fit, 25°C; combinations as equimolar titrations; read-out: SPR (Kd), direct MYC binding
Sequence (P01106 368-454): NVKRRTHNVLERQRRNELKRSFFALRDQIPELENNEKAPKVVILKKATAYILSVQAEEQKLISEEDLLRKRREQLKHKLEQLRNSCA
pKd: −log10 of the molar value.

Query smiles: CCc1ccc(/C=C2\SC(=O)N(CC[C@@H]3C[C@@H]4C=C[C@H]3C4)C2=O)cc1
pKd: < 4.30
--
Query smiles: CCc1ccc(/C=C2\SC(=O)N(CCNC(=O)[C@@H]3C[C@H]4C=C[C@H]3C4)C2=O)cc1
pKd: < 4.30
--
Query smiles: CCc1ccc(/C=C2\SC(=O)N(CCNC(=O)[C@@H]3C[C@@H]4C[C@H]3[C@@H](O)[C@H]4O)C2=O)cc1
pKd: < 4.30
--
Query smiles: CCc1ccc(/C=C2\SC(=O)N(CC[C@@H]3C[C@H]4C[C@@H]3[C@H](O)[C@@H]4O)C2=O)cc1
pKd: < 4.30
--
Query smiles: O=C(NCc1cccc(B(O)O)c1)c1ccccc1Nc1ccc([N+](=O)[O-])c2nonc12
pKd: 4.38
--
Query smiles: O=C(NCc1ccc(B(O)O)cc1)c1ccccc1Nc1ccc([N+](=O)[O-])c2nonc12
pKd: 4.33
